Reported values of ΔTm for individual entries
tested-on: Cyclin-dependent kinase 2 (Homo sapiens)
condition-context: Compound concentration 20.0 uM, Protein concentration 2.0 uM, Result type QC Liability
Description: Thermal Shift Assay. Domain: start/stop: M1-L298
Supply the numeric figure in °C, leaving out any unit text.

cpd-smiles: Cc1nsc(Nc2cnc(C(F)(F)F)cn2)c1C(=O)Nc1ccc(O[C@H]2CCCN(CC(F)(F)F)C2)nc1
ΔTm (°C): 1.68

*Q* Value wanted: ΔTm (Cyclin-dependent kinase 2 (Homo sapiens)) of entry `CNc1ncc2cc(-c3ccc(-c4ncccc4F)cc3Cl)c(=O)n(C[C@H]3OC[C@H](N)CO3)c2n1`
*A* 1.01

*Q* How about this compound: `O=c1[nH]c(CS[C@H]2CC[C@H](O)CC2)nc2cc(OCC3CC3)cc(F)c12`
*A* 0.95

*Q* How about this compound: `O=C(O)CCCCN(CCc1cc(F)ccc1OCc1ccc(-c2ccc(C(F)(F)F)cc2)cc1)Cc1ccc(C(=O)O)cc1`
*A* -0.19
